Protocol Notes: changes in parasitized red cell lysis, either direction – P. falciparum Indochina, OD700, 3 h, PSAC antagonist project, primary screen (AID 1156)
Condition Label: P. falciparum-infected erythrocytes, osmotic lysis, higher = more signal, called active from +8 up or from −8 down
Please respond with reported z-score for every item in the list.
Please reply with the value in numeric form only.

Which z-score is listed for COc1ccc(CCNC(=O)[C@@]2(Cc3ccccc3I)c3ccccc3C(=O)N(C3CCCCC3)[C@H]2c2ccc(CO)cc2)cc1 ?
1.27

// lookup z-score for [N-]=[N+]=Nc1ccccc1C[C@]1(C(=O)N2CCOCC2)COC(c2ccc(OCCCO)cc2)=N1
1.52

Requested field: z-score. Item: COCC(=C=CC[C@H](O)c1ccc(CO)o1)CCO
-0.148

Form field: reported z-score of COC(=O)[C@@H]1N=C(c2ccc(OCCCO)cc2)O[C@@H]1C
0.404

What value of z-score has been recorded for this entry: CCCC=C(CCC)[C@@H](NP(=O)(c1ccccc1)c1ccccc1)c1ccc(-c2ccccc2)cc1
-1.07

For COC(=O)[C@@]1(Cc2ccc(OC)cc2)[C@H]2c3cc(C(=O)N4CCCC4)n(CCc4c[nH]c5ccc(O)cc45)c3C[C@H]2CN1C(=O)c1ccccc1 , what is its reported z-score?
1.27

Item C=CCC(OC(C)=O)[C@@H]1[C@@H](N(Cc2ccc(-c3cccc(C(F)(F)F)c3)o2)C(=O)Cc2ccc(OC)cc2)c2cc(OCCCO)ccc2N1C(=O)c1ccc(-c2ccccc2)cc1 (stereo not given in full) has what recorded z-score?
1.81

Tell me the measured z-score of COC(=O)[C@@]1(Cc2ccc(OC)cc2)[C@H]2c3cc(C(=O)N(C)C)n(Cc4ccc(C)o4)c3C[C@H]2CN1C(=O)c1ccccc1 , please.
1.3

Field request: z-score | item: O=C(c1ccccc1)N1C(=O)[C@]2(Cc3ccccc31)N=C(c1ccc(OCCCO)cc1)O[C@@H]2c1ccccc1
0.0521

Can you look up the measured z-score of Cc1ccc(S[C@]2(C(=O)NCc3ccccc3)CC(=O)N(C3CCCCC3)[C@@H]2c2ccc(CO)cc2I)cc1 for me?
1.04

What value of z-score has been reported for the following compound? CCCC[C@@H](O)C1=C(COC)C[C@H]2C(=O)N(C)C(=O)[C@H]2[C@H]1CO
-1.12

Field request: z-score | item: O=C(NCc1ccc(F)cc1)[C@H]1C[C@H]2C(=O)NCC(=O)N2[C@H]1c1ccc(O)cc1
-2.04

Quick one: z-score of O=C1OCCC=C[C@H]2OC34C=CCN(c5ccc6ccccc6c5)C(=O)[C@H]3N(CCCO)C(=O)[C@@H]4C12 (stereo not given in full) ?
0.676

z-score lookup needed for CCCNC(=O)[C@@H]1c2ccccc2C(=O)N(Cc2ccc(OC(F)(F)F)cc2)[C@H]1c1ccc(CO)cc1 , thanks.
1.03

What does the data say about its z-score? Entry: CC(CO)N1C(=O)[C@]2(C)C3C(=O)OCCC/C=C\[C@H]3OC23C=CCN(c2ccc(Cl)cc2)C(=O)[C@@H]13 (stereo not given in full)
1.94

Could you share which z-score value was measured for C[N+](C)(C)CCCCCCNC(=O)[C@@H]1C[C@@H]2C(=O)N3CCC[C@H]3C(=O)N2[C@@H]1c1ccc(O)cc1 ?
-0.72

Data request, read-out z-score, for NC(=O)NCC#Cc1ccc2c(c1)[C@]1(C(=O)N2)[C@H](c2ccccc2OCCO)N2[C@H](c3ccccc3)[C@H](c3ccccc3)OC(=O)[C@H]2[C@@H]1C(=O)O
-1.78

Given CC(C)C(CO)N1C(=O)[C@@H]2[C@H]3C(=O)OCC=C[C@H]3OC23C=CCN(c2ccc(Cl)cc2)C(=O)[C@@H]13 (stereo not given in full) , state its recorded z-score.
1.06

Query: z-score; subject: NC(=O)NCC#Cc1ccc2c(c1)[C@]1(C(=O)N2)[C@H](c2ccccc2OCCO)N2[C@H](c3ccccc3)[C@H](c3ccccc3)OC(=O)[C@H]2[C@@H]1C(=O)NC[C@H](O)c1ccccc1
-0.313

Entry under review: [N-]=[N+]=NCc1ccccc1C[C@@]1(C(N)=O)N=C(c2ccc(OCCCO)cc2)O[C@@H]1c1ccccc1 . Reported z-score?
0.354

Given the compound [N-]=[N+]=Nc1ccccc1C[C@]1(C(=O)NCC(O)CO)COC(c2ccc(OCCCO)cc2)=N1 (stereo not given in full) , what is its reported z-score?
3.57

So what's the measured z-score for this one? COc1cc(NN2C(C(O)c3ccco3)C=CC3C(=O)N(C)C(=O)C32)cc(OC)c1OC (stereo not given)
0.214

Item under review: CCCNC(=O)[C@@]1(C)c2ccccc2C(=O)N(c2ccc(C)cn2)[C@H]1c1ccc(CO)cc1 . Reported z-score?
0.181

May I ask what z-score has been recorded for C=CC[C@H](OC(=O)Nc1ccc(SC)cc1)c1ccc(O)c2ccccc12 ?
2.22

Entry under review: CN1C2C=C(CCCO)C(C3C(=O)N(C(N)=O)C(=O)C32)C1C1CC1 (stereo not given) . Reported z-score?
-0.624

What value of z-score has been recorded for this entry: COc1cccc(C)c1NC(=O)O[C@H]1[C@H](OC(=O)Nc2ccccc2-c2ccccc2)[C@H](OC(=O)Nc2ccccc2-c2ccccc2)[C@@H](OC)O[C@@H]1CO
-0.299

Find the recorded z-score belonging to COCCOC(=O)N1C(=O)[C@@]2(c3cc(C#CC4=CCCCC4)ccc31)[C@H](C(=O)Nc1nc3ccccc3s1)[C@H]1C(=O)O[C@H](c3ccccc3)[C@H](c3ccccc3)N1[C@@H]2c1ccc(O)cc1 and report it.
-0.0845

Which value of z-score has been reported for C=CC[C@@H](OC(=O)Nc1ccc(SC)cc1)c1ccc(O)c(F)c1 in the records?
1.9

Tell me the measured z-score of CCOC(=O)C[C@H]1[C@H](OC(=O)c2ccc(-c3ccccc3)cc2)[C@@H](NC(=O)CC(C)C)c2cc(OCCCO)ccc2N1C(=O)c1ccc2ccccc2n1 , please.
0.457

Reported z-score for CC(C)[Si]1(C(C)C)OCc2cc(C3CC3)nc(-c3ccc(Oc4ccccc4)cc3)c21 : what is it?
0.508

###

Experimental System: Alpha-bungarotoxin (Bungarus multicinctus)
Protocol Notes: compounds binding labelled alpha-BTX control protein – biochemical, small-molecule microarray, Alexa647 label, 635/667 nm fluorescence, artefact control for SMM control protein annotation, profiling panel (AID 1117)
Condition Label: alpha-BTX-A647 binding fluorescence, higher = more signal
Binary call on composite z-score: condition met from -0.4 upward, condition not met beneath that.

Could you please find out whether COc1cc(NN2C(C(O)c3ccc(N(C)C)cc3)C=CC3C(=O)N(c4ccccc4)C(=O)C32)cc(OC)c1OC (configuration not stated) has composite z-score that meets -0.4 or exceeds it?
condition met

Tell me whether composite z-score is at least -0.4 here: CCCC=C(CCC)[C@@H](NS(=O)(=O)CC12CCC(CC1=O)C2(C)C)c1ccc(C(=O)OC)cc1 (some centres not stated)
condition met

Dear colleague, could you confirm whether O=C(O)[C@@H]1[C@@H]2C(=O)N(c3ccccc3)C(=O)[C@@H]2C[C@@H]1Sc1ccccc1 has composite z-score at or above -0.4?
condition not met

Record Cc1ccc(S[C@]2(C(=O)NCCN3CCOCC3)CC(=O)N(Cc3ccccc3Cl)[C@@H]2c2ccc(CO)cc2I)cc1 ; criterion: composite z-score no lower than -0.4. Met?
condition not met

Dear colleague, could you confirm whether COCCOC(=O)N1C(=O)[C@@]2(c3cc(C#CCC(C(=O)OC)C(=O)OC)ccc31)[C@H](c1ccc(OCCO)cc1)N1[C@H](c3ccccc3)[C@H](c3ccccc3)OC(=O)[C@H]1[C@@H]2C(=O)N1CCc2cc(OC)c(OC)cc2C1 has composite z-score at or above -0.4?
condition met

Please indicate if the recorded composite z-score for Cn1cccc1C(O)C1C=CC2C(=O)N(c3ccccc3)C(=O)C2N1Nc1ccccc1 (configuration not stated) meets or exceeds -0.4.
condition met

Determine whether measured composite z-score meets or exceeds -0.4 for Cc1ccc(S[C@]2(C(=O)O)CC(=O)N(C3CCCCC3)[C@@H]2c2ccc(CO)cc2I)cc1
condition met

For this compound, is measured composite z-score -0.4 or higher? CN1C2C=C(CCCO)C(C3C(=O)N(C(N)=O)C(=O)C32)C1C1CC1 (configuration not stated)
condition met

Exam item: decide whether the reported composite z-score for CC(C)C(CO)N1C(=O)[C@@H]2C3C(=O)OCCC/C=C\[C@H]3OC23C=CCN(Cn2nnc4ccccc42)C(=O)[C@@H]13 (some centres not stated) is at least -0.4.
condition not met

Assess whether reported composite z-score for CCCCC=C[C@@H](NC(=O)OCc1ccccc1Cl)c1ccccc1 sits at -0.4 or higher.
condition met

Decide: is the reported value of composite z-score for CC#CCO[Si](C#Cc1ccccc1)(C(C)C)C(C)C equal to or greater than -0.4?
condition not met

Decide: is the reported value of composite z-score for COc1ccc([Si](C)(C)[C@H]2[C@H](CC(=O)N3Cc4ccccc4C[C@H]3CO)O[C@@]3(C(=O)N(Cc4ccc(N5CCOC5=O)cc4)c4ccccc43)[C@@H]2C)cc1 equal to or greater than -0.4?
condition met

For this compound, is measured composite z-score -0.4 or higher? CCOC(=O)C1=CC[C@@H](c2ccccc2)N(S(=O)(=O)c2ccc(C)cc2)[C@H]1c1ccccc1
condition met

Reported composite z-score at or above -0.4? Oc1ccc2cc[n+](Cc3cc4c(cc3Br)OCO4)cc2c1
condition not met

Please indicate if the recorded composite z-score for Cc1ccc(S[C@]2(C(=O)NCC(F)(F)F)CC(=O)N(Cc3cc(C(F)(F)F)cc(C(F)(F)F)c3)[C@@H]2c2ccc(CO)cc2I)cc1 meets or exceeds -0.4.
condition met

Item CCOC(=O)C1=C[C@@H](C(C)(C)C)N(S(=O)(=O)c2ccc(C)cc2)[C@H]1c1cccc2ccccc12 with composite z-score of -0.4 or above?
condition met

Does CC1CC/C=C\[C@H]2OC34C=CCN(C(C)C)C(=O)[C@H]3N(CCO)C(=O)[C@@H]4C2C(=O)O1 (some centres not stated) have a reported composite z-score of at least -0.4?
condition not met

Could you verify whether the entry COC(=O)[C@@H]1N=C(c2ccc(OCCCO)cc2)O[C@@H]1C shows composite z-score of no less than -0.4?
condition met

Could you tell me if the measured composite z-score of C=C[C@H](C)[C@H](OC(=O)Nc1ccc(SC)cc1)c1ccc(OCCO)cc1 reaches -0.4 or more?
condition met

Quick check, composite z-score >= -0.4? CCN(CC)c1ccc(N2CC=CC34O[C@@H]5/C=C\CCCOC(=O)C5[C@H]3C(=O)N(C(C)CO)[C@@H]4C2=O)cc1 (some centres not stated)
condition met

Does composite z-score meet or surpass -0.4 for C=CCC(OC(C)=O)[C@@H]1[C@@H](N(Cc2ccc(-c3cccc(C(F)(F)F)c3)o2)C(=O)Cc2ccc(OC)cc2)c2cc(OCCCO)ccc2N1C(=O)c1ccc(-c2ccccc2)cc1 (some centres not stated) ?
condition met

API: above_or_equal(metric=composite z-score, cutoff=-0.4) for item C#CCN(Cc1ccccc1Br)[C@H](/C=C/c1ccccc1)[C@@H](O)Cc1ccccc1
condition met

Does COc1ccc([Si](C)(C)[C@@H]2[C@@H](CCO)O[C@]3(C(=O)N(Cc4cccc(NC(=O)[C@H](C)O)c4)c4ccccc43)[C@H]2C)cc1 have a reported composite z-score of at least -0.4?
condition met

Is composite z-score for CC(C)N1CC=CC23O[C@@H]4C=CCCOC(=O)C4[C@H]2C(=O)N(CCCO)[C@@H]3C1=O (some centres not stated) at or above -0.4?
condition not met

Does composite z-score meet or surpass -0.4 for COc1ccc([C@H]2OC[C@@H]3C[C@H](Cc4ccccc4)C(=O)N32)cc1 ?
condition met

In plain terms: is recorded composite z-score at least -0.4 for CC(CO)N1C(=O)[C@@H]2[C@H]3C(=O)OCC=C[C@H]3OC23C=CCN(Cn2nnc4ccccc42)C(=O)[C@@H]13 (some centres not stated) ?
condition not met

Does composite z-score meet or surpass -0.4 for COCCCNC(=O)[C@@H]1c2ccccc2C(=O)N(C(C)C)[C@H]1c1ccc(CO)cc1 ?
condition met

Is reported composite z-score greater than or equal to -0.4 here: CC(=O)NCCCC[C@@H]1NC(=O)[C@@H]2C[C@H](C(=O)NCCCCCN)[C@H](c3ccc(O)cc3)N2C1=O
condition met

# bool: composite z-score of CC(C)NC(=O)[C@@]1(c2ccc([N+](=O)[O-])cc2)CC(=O)N(C2CCCCC2)[C@@H]1c1ccc(CO)cc1 >= -0.4
condition met

composite z-score >= -0.4 for CCCCC(CC)C(O)C1C=CC2C(=O)N(c3ccccc3)C(=O)C2N1Nc1ccccc1F (configuration not stated) ?
condition met

hey, is composite z-score for this one >= -0.4? COc1cccc(C)c1NC(=O)O[C@H]1[C@H](OC(=O)Nc2ccccc2-c2ccccc2)[C@H](OC(=O)Nc2ccccc2-c2ccccc2)[C@@H](OC)O[C@@H]1CO
condition met
